# Test system: tet operator sequence
# assay-notes: β-galactosidase activity of a tetracycline-regulated promoter in transformed E. coli with revTetR, in the presence and absence of anhydrotetracycline (atc)
# Format: cell-based, Escherichia coli
# measurement-parameters: RevTetR isolate cultured in the presence of anhydrotetracycline (ATC)
Property: β-Galactosidase Activity, Cultured With ATC; scope: individual molecules
Just the number, please.

Request: Look up β-Galactosidase Activity, Cultured With ATC of TetRrevAtc4-7: revTetR(BD) I59R L55L A61E H64N (protein, Modified tetracycline repressor, revTetR(BD) I59R L55L A61E H64N) MSRLDKSKVINSALELLNEVGIEGLTTRKLAQKLGVEQPTLYWHVKNKRALLDALAVERLERHNDYSLPAAGESWQSFLRNNAMSFRRALLRYRDGAKVHLGTRPDEKQYDTVETQLRFMTENGFSLRDGLYAISAVSHFTLGAVLEQQEHTAALTDRPAAPDENLPPLLREALQIMDSDDGEQAFLHGLESLIRGFEVQLTALLQIV and report it.
Result: 27.649

Data origin: patent US20030186281A1
